For each record, write down the corresponding pKa.
- ASSAY NAME: pKa of lipid nanoparticle measured using TNS
- Type: physicochemical
- ASSAY CONDITIONS: apparent pKa of the pH-sensitive cationic lipid constituting a lipid nanoparticle
- Experimental: The pKa of lipid nanoparticles was measured using […] (TNS). TNS (final concentration: 0.75 mM) and the lipid nanoparticles (final concentration: 30 mM) were first mixed in a buffer solution adjusted to each pH. The fluorescence intensity of the prepared mixed solution was measured using a microplate reader.
Answers are plain numbers.

Look over these answered cases.
Entry "CCCCCCCC/C=C\CCCCCCCC(=O)OCCCCCCC(O)(CCCCCCOC(=O)CCCCCCC/C=C\CCCCCCCC)CCCCOC(=O)C1CCN(C)CC1" , pKa reported as 7.3

// pKa value for "CCCCC/C=C\C/C=C\CCCCCCCCC(O)(CCCCCCCC/C=C\C/C=C\CCCCC)CCCCN(C)C" : 8.2

# molecule "CCCCCCCC/C=C\CCCCCCCC(=O)OCCCCCCC(O)(CCCCCCOC(=O)CCCCCCC/C=C\CCCCCCCC)CCCCN(CCC)CCC" ; its pKa = 6.35

Continue with the next molecule.
"CCCCCCCC/C=C\CCCCCCCC(=O)OCCCCCCC(O)(CCCCCCOC(=O)CCCCCCC/C=C\CCCCCCCC)CCCCN(C)C" has a reported pKa of 8.2
